Kindly supply the reported apparent KD of K4 kissing-loop reporter values for the records listed here.
Test system: K4 kissing-loop RNA reporter;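 note: bound reporter read as fluorescence of individual clusters on recovered sequencing chips by microscopy, with normalized cluster intensities fitted with a binding model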
assay.explanation: apparent KD of K4 kissing-loop reporter; higher = weaker reporter binding
measurement.context: Eterna round: R107; input ligand: arginine 13.2 mM
Form entry: value (µM) — number only.

Can you look up the measured apparent KD of K4 kissing-loop reporter of GGUGCUGUCUGUGCCGCCCUCCUCGUCCCUCGAGGACCGGUACGGCCGCCACUCGAGUGAUGUUCGGGUAGCGAUCCCUGCUAGC [Bdazzled - #18 Exc. Tryptophan A] for me? 0.194

CGCGCGCGCUUGAGAGGGCGCGCGCGAAGUGAGGAUAUUUAGGGAGAAAGAAGGCACUAUAAAAUAUAGUGAUGUUAUAUAAGGG [SSFMNA.E] ? 0.24

UAGAGGAGACUCUAAUUCCUUAAGUCCGAAGGAGCGACCCAAUGGUCAGGUAGGUCGCGGACAAUCCUAGUGAUGUUAGGAUCUG [Arg A SS t5a] ? 0.136

CCUAUCUCAUACGAUACCAGUGAAUUAAUAUUUAUAAGCAGUGAUGUUGCAUUCCAAGUACACCCUUGGCAGCGUAUGGGAUAGG [Ex Theophylline B K4 20] ? 0.151

GAACGGCGGGCGGCCGCCACUGGUAUACGAGUGAUGUUCGGAUAUACGUGAUGUAAGGUAAUUAUCAGGACCGGGUCAGAGCCGG [#16 K4 Tryptophan B Same State] ? 0.183

UGAUAGGACAGAAGGAGCGGUAGUGAUGUUACCAAAAGUAUAAGGUGUCAAAAGACACCCUACCAGGUAGGUCGCUGUCCUAUCU ? 0.295

AAGAAGGUCAAAGACCUUCGUGCACCUGAUACCAGUCGCGAAAGCGACCCUUGGCAGCAGGGCAGUGAUGUUGCCAAGUGCACAA [Omei KL Theo A SS A v1] ? 0.65

UGAGUUUGAGUGAUGUUCAGGCAUUGGUACGAGGAUAUCGAGGAGUUGAGAAGGCGUACUGCUCAACUUUGUAUGAAUACAUACA [FMN A Ex t2b] ? 0.0734

GCCGUACGCAUGGAUACCAGAUGGCACUAUAAUCUACCAGAGUGAUGUUCUGGCCUGCCCAUCCCUUGGCAGCCAUGCGUACGGC ? 0.199

UAAUAUACGAGUGAUGUUCGUUAUUUAUCAGAGGAUAUGCUUAAAUGCAGAAGGCUGUUUUUCUAAUUGAUAUUAAAUUUUUUUA [JR_Nu_ExcFMNA_Sub028] ? 0.0901

UAACCUGUAAACGAUACCAGUUGCAUGGAAACUUGGUACUAGCUAGUGAUGUUAGCAAGCAACCCUUGGCAGCGUCGCCUGACAG [theeternabot_sameState_KL_Theo_B_17] ? 0.427

GUCUCCGUCGAUGAUACCAGUCGAUGUACGUCAGGUACCCUUUGAGUGAUGUUCAGAUUAGACCCUUGGCAGCAUAUCGAGGCUC [theeternabot_exclusion_KL_Theo_B_24] ? 0.452

GAUACGUCAGUGAUGUUGAUGUAUUACACAGAGGAUAUCGUAAUGACGAGAAGGCUGAGCCAUCUAGAGAUACGUAAGACGUAUC [FMN A SS t5] ? 0.196

AUGGUUGUCGUAGGAUAUGUAGGAUAUUCCUAUAGCAGUGAUGUUGCUAAUAUCUUGGAAAGAAGGACAGAAGGACGAUAACCAC [KL-SSFMN-B2 #analogue] ? 0.112

AAUAACUAGUAUUUUUUUAAUAAUACAGAUACCAGUGAUAAUAAACACCCUUGGCAGCUGAUCGAGUGAUGUUCGUUUAUUUUAA [JR_SSTheophyA_Sub003] ? 0.0833

From: the supplement of paper PMC9170038
